Target: UniProt:P51449
Sequence (whole entry): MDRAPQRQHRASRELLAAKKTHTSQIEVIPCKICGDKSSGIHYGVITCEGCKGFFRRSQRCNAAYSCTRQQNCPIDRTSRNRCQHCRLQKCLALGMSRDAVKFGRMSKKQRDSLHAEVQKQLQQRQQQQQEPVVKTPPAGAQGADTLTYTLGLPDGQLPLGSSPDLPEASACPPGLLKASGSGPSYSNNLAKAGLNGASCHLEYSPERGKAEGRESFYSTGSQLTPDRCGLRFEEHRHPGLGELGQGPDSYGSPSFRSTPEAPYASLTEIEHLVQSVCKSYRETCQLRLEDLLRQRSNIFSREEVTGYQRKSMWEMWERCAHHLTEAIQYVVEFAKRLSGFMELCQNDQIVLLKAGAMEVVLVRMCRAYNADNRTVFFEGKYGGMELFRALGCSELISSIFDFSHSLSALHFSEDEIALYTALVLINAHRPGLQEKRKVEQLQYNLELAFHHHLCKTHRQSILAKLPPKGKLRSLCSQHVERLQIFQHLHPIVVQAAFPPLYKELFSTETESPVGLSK
Assay: Transrepression of recombinant human GAL4-DBD fused RORgammat LBD expressed in HEK293 cells after 20 hrs by luciferase reporter gene assay
Format: cell-based
test-readout: Efficacy (%)
Response body: numeric value in %, unit text excluded.

Record excerpt, results attached:
smiles-record: CCS(=O)(=O)c1ccc(CC(=O)Nc2ccc(C(C)(C)C(=O)Nc3ccc(F)cc3)cc2)cc1
Efficacy [%]: 93

smiles-record: CCS(=O)(=O)c1ccc(CC(=O)Nc2ccc(C(C)(C)C(=O)N3CCC3)cc2)cc1
Efficacy [%]: 90

smiles-record: CCS(=O)(=O)c1ccc(CC(=O)Nc2ccc(C(C)(C)C(=O)Nc3ccc(F)cc3F)cc2)cc1
Efficacy [%]: 91

Form field: Efficacy recorded for "CCS(=O)(=O)c1ccc(CC(=O)Nc2ccc(C(C)(C)C(=O)Nc3ccccc3)cc2)cc1" with UniProt:P51449 (enter value)
93

Try this molecule too: "CCS(=O)(=O)c1ccc(CC(=O)Nc2ccc(C(C)(C)C(=O)Nc3ccccn3)cc2)cc1"
93

Try this molecule too: "CCS(=O)(=O)c1ccc(CC(=O)Nc2ccc(C(C)(C)C(=O)N3CCc4ccccc43)cc2)cc1"
93

Try this molecule too: "CCS(=O)(=O)c1ccc(CC(=O)Nc2ccc(C(C)(C)C(=O)Nc3cc(F)ccn3)cc2)cc1"
94

Try this molecule too: "CCS(=O)(=O)c1ccc(CC(=O)Nc2ccc(C(C)(C)C(=O)Nc3cccnc3)cc2)cc1"
93

Try this molecule too: "CCS(=O)(=O)c1ccc(CC(=O)Nc2ccc(C(C)(C)C(=O)N(C)C)cc2)cc1"
89

Try this molecule too: "CCS(=O)(=O)c1ccc(CC(=O)Nc2ccc(C(C)(C)C(=O)Nc3ncccc3F)cc2)cc1"
92

Try this molecule too: "CCS(=O)(=O)c1ccc(CC(=O)Nc2ccc(C(C)(C)C(=O)Nc3cccc(C(F)(F)F)n3)cc2)cc1"
90

Try this molecule too: "CCS(=O)(=O)c1ccc(CC(=O)Nc2ccc(C(C)(C)C(=O)N3CCCCC3)cc2)cc1"
91

Try this molecule too: "CCS(=O)(=O)c1ccc(CC(=O)Nc2ccc(C(C)(C)C(=O)Nc3cc(Cl)ccn3)cc2)cc1"
95

Try this molecule too: "CCS(=O)(=O)c1ccc(CC(=O)Nc2ccc(C(C)(C)C(=O)Nc3ccc(F)cc3)c(F)c2)cc1"
95

Try this molecule too: "CCS(=O)(=O)c1ccc(CC(=O)Nc2ccc(C(C)(C)C(=O)Nc3ccncc3)cc2)cc1"
87
